Where these numbers come from: PubChem BioAssay (NCI)

test system: TK-10 renal; assay: NCI tumour cell line growth inhibition, 48 h
Measured GI50, listed per entry for reference.
measured metric: GI50

1. CCCCCCCCCCSC(=N)N (tested in a mixture with another compound): 1.95 µM
2. CC(=C(c1ccc(OCCN2CCCCC2)cc1)c1ccc(OCCN2CCCCC2)cc1)c1ccc(Cl)cc1: 0.384 µM
3. O=C1C(C(Nc2ccccc2)c2ccccc2)=C([O-])c2ccccc21.O=C1C(C(Nc2ccccc2)c2ccccc2)=C([O-])c2ccccc21.[Cu+2] (centres undefined): > 100 µM
4. COc1c2ccccc2c(OC)c2[nH]c(=O)ccc12: 51.2 µM
5. O=C1c2c(F)c(F)c(F)c(F)c2C(=O)N1c1ccc(F)cc1F: 13.7 µM
6. COc1cc(/C=C2\CN(S(=O)(=O)c3ccc(C)cc3)C/C(=C\c3cc(CN4CCCC4)c(O)c(OC)c3)C2=O)cc(CN2CCCC2)c1O: 1.86 µM
7. COC(=O)c1cc2oc(/C=C3/SC(=S)N(NC(C)=O)C3=O)cc2n1C: 26 µM
8. COc1ccc(C(c2cc(OC)c(OC)c(OC)c2)n2cncn2)cc1O (centres undefined): > 100 µM
9. c1ccc(Nc2ncc(-c3ccccc3)o2)cc1: > 25 µM

###

tested on: XF 498 CNS; assay: NCI tumour cell line growth inhibition, 48 h
measured metric: TGI (µM)

1) CCOc1ccc(NC2=CC(=O)C(=O)c3ccccc32)cc1: 5.31
2) O=C(Nc1nc(=S)[nH][nH]1)C(=O)C(C(=O)c1ccc2ccccc2c1)C1OC(=O)c2ccccc21 (stereo not given): 41.9
3) CCCCCCCCCCCCNC(=S)OC: 30.6

###

test system: PC-3 prostate; test: NCI tumour cell line growth inhibition, 48 h
measured metric: TGI

1. COc1ccccc1CC(=O)C(O)(C(F)(F)F)C(F)(F)F: > 100 µM
2. O=C1c2ccccc2-n2nnnc2C2CSCN12 (stereo not given): > 100 µM
3. COc1ccc2oc3c(C)cc4c(OC)nnc(OC)c4c3c2c1: > 100 µM
4. O=C(NC1CCCCC1)NS(=O)(=O)c1ccc(N2N=C3c4ccccc4CC3C2c2ccc(Cl)cc2)cc1 (stereo not given): 18.8 µM
5. CN(C)c1ccc(/C=N/NC(=S)Nc2ccccc2)cc1: > 100 µM
6. COc1ccc(C2=CC(C(C)=C(C(N)=O)C(N)=O)C=C(c3ccc(Br)cc3)C2)c(OC)c1 (stereo not given): > 100 µM
7. CC(=C(c1ccc(OCCN2CCCCC2)cc1)c1ccc(OCCN2CCCCC2)cc1)c1ccc(Cl)cc1: 0.825 µM
8. CC(C)(C)[Si](C)(C)OC1[C@@H](O[Si](C)(C)C(C)(C)C)[C@@H](CNC(=O)NC(=O)C(F)(F)F)O[C@H]1n1cnc2c(NC(=O)Nc3ccccc3)ncnc21 (stereo not given in full): 7.91 µM
9. COc1ccc(Cn2c(Br)c3c(c2Br)-c2nc(N)sc2CC3)cc1: 30.1 µM
10. O=C1C(Br)=C(Br)C(=O)c2ccc(=O)ccc21: > 100 µM

###

system: A498 renal; experiment: NCI tumour cell line growth inhibition, 48 h
measured metric: TGI (µM)

1. CCNC(=O)C#Cc1ccc2c(C(=Nc3ccc(CN(C)C)cc3)c3ccccc3)c(O)[nH]c2c1: 0.179
2. CC(C)=C[C@H]1C[C@H](C)[C@H]2CC[C@H](C)c3c2c1c(C)c1ncoc31: 34.9
3. Br[Se]c1ccccn1: 34
4. C=C1c2nc3ccccc3n2C=C(c2ccc(OC)cc2)N1c1ccc(OC)cc1: 64.9
5. Cc1cn(C2OC(CO[Si](C)(C)C(C)(C)C)C(N(C)O[Si](C)(C)C(C)(C)C)C2[Se]c2ccccc2)c(=O)[nH]c1=O (stereo not given): 49.5

###

Measured GI50, listed per entry for reference.
test system: RPMI-8226 leukemia; test: NCI tumour cell line growth inhibition, 48 h
measured metric: GI50

1) Cc1ccc(NC2=C3CCCCC3OC2=O)cc1 (centres undefined): 34500 nM
2) c1ccc(Nc2ncc(-c3ccccc3)o2)cc1: > 25000 nM
3) CC(=C(c1ccc(OCCN2CCCCC2)cc1)c1ccc(OCCN2CCCCC2)cc1)c1ccc(Cl)cc1: 530 nM
4) CC(C)[C@@H]1NC(=O)[C@]2(C)CSC(=N2)c2ccnc(c2)CNC(=O)C[C@@H](/C=C/CCS)OC1=O: 1490 nM
5) OC(c1cc(C(F)(F)F)nc2c(C(F)(F)F)cccc12)C1CCCCN1 (centres undefined): 3220 nM
6) C#Cc1cccc(Nc2nc3cc([N+](=O)[O-])ccc3nc2Nc2ccc(O)cc2)c1: 2240 nM
7) CN1CCN(c2ccc(Nc3ncc(Cl)c(NC[C@@H]4CCCO4)n3)cc2)CC1: 1480 nM
8) Cc1ccc(-c2nc(N3CCNCC3)c3oc(-c4ccc(C)cc4)nc3n2)cc1: 2480 nM
9) COC(=O)c1cc2oc(/C=C3/SC(=S)N(NC(C)=O)C3=O)cc2n1C: 24000 nM

###

tested on: MOLT-4 leukemia; test: NCI tumour cell line growth inhibition, 48 h
Where a SMILES comes first, the peptide text is derived from it. The star is where a group is joined. OSu = O=C1CCC(=O)N1O*
Would you please tag the item t when its TGI is 40 µM or above, and f when it is below?

1. CCN(CC)CCCNC(=O)c1cc(-c2nccn2C)nc2ccccc12: t
2. CON(C)C(=O)C(Cc1ccccc1)NC(=O)OCc1ccccc1 (centres undefined): t
3. CCOc1ccc(NC2=CC(=O)C(=O)c3ccccc32)cc1: t
4. O=C1SC(SCc2ccccc2)=NC12CC2c1ccccc1 (centres undefined): f
5. COC(=O)[C@]12CC[C@@H](C)[C@H](C)[C@@H]1C1=CC[C@@H]3[C@@]4(C)C[C@@H](O)[C@H](O)[C@@](C)(CO)[C@@H]4[C@H](O)C[C@@]3(C)[C@]1(C)CC2: f
6. Oc1ccc(NCn2c(=S)sc3ccccc32)cc1: t
7. CC(C)=C[C@H]1C[C@H](C)[C@H]2CC[C@H](C)c3c2c1c(C)c1ncoc31: f
8. COc1ccc(NC(=S)c2ccc(CN3CCCCC3)s2)cc1: t
9. CC[C@@H](c1ccc(O)c(O)c1)[C@@H](CC)c1ccc(O)c(O)c1: f
10. COc1cc2c(cc1O)[C@H](C)C(c1ccc(OC)c(OC)c1)O2 (some centres undefined): f
11. NCCCCC(NC(=O)C(N)Cc1ccc(O)cc1)C(=O)NC(CCCCN)C(=O)NC(CCCCN)C(=O)ON1C(=O)CCC1=O (centres undefined) (H-YKKK-OSu; configuration not given here): t
12. O=C(O)C1C2c3ccccc3C(c3ccccc32)C1C(=O)NCC1CC1 (centres undefined): t
13. Cc1ccc2nc(-c3ccccc3)cc(=O)n2c1: t
14. CN(C)CC1CCCC/C1=N/O (centres undefined): t
15. Cc1cc(Nc2ccc(C)c(Cl)c2)n2nc(C(F)(F)F)nc2n1: t
16. C[C@]12c3c4cc(NC(=O)C(=O)NCc5ccc(-c6ccccn6)nc5)cc3Oc3cc(NC(=O)C(=O)NCc5ccc(-c6ccccn6)nc5)cc(c31)OC1C=C(NC(=O)C(=O)NCc3ccc(-c5ccccn5)nc3)C=C(O4)C12 (some centres undefined): t
17. COc1cc2c(/C=C3/C(=O)Nc4cccc(Cl)c43)c(Cl)[nH]c2cc1C: f
18. N#CCCC[Si]12OCCN(CCO1)CCO2: t
19. O=C(O)Cc1ccc([N+](=O)[O-])cc1[N+](=O)[O-]: t
20. O=C(Nc1c(O)[nH]c(=S)[nH]c1=O)c1ccccc1: t
21. CCn1cnc2c(=S)nc(N)[nH]c21: t
22. CC1=NN(c2nc(N)nc(COc3ccc(N)cc3)n2)C(C)(C)C1: t
23. COc1ccc(C2c3cc4c(cc3OC3(OC)COC(=O)C23)OCO4)c(OC)c1 (centres undefined): t
24. C=CCNC(=S)N/C=C(\C#N)C(N)=O: t
25. C/C(CN1C(=O)c2ccccc2C1=O)=N\NS(=O)(=O)c1ccc(Cl)cc1: t
26. Cc1ccc(S(=O)(=O)N2C3C=CC(C3)[C@@H]2C(Cl)(Cl)Cl)cc1 (some centres undefined): t
27. COc1cc(/C=C2\CN(S(=O)(=O)c3ccc(C)cc3)C/C(=C\c3cc(CN4CCCC4)c(O)c(OC)c3)C2=O)cc(CN2CCCC2)c1O: f
28. C[C@@H]1CC[C@H]2C(C)(C)[C@H]3C[C@@]12CC[C@@]3(C)O: t
29. O=c1[nH]c(=O)c2c3n(cc2[nH]1)CCCCC3: t
30. CC(=O)Nc1cc2ccc(=O)oc2cc1Cl: t
31. O=C1OCC2=C1C(c1cccc(Br)c1)c1cc3c(cc1N2CCO)OCCO3 (centres undefined): t
32. O=C1c2ccccc2-n2nnnc2C2CSCN12 (centres undefined): t
33. CN(C)C(=S)/N=c1\ssc(=S)n1C1CCCCC1: t
34. N#CC(C(=O)CCC(=O)Nc1ccc(Cl)c(Cl)c1)c1ccccc1 (centres undefined): t
35. COc1ccc(C2=CC(C(C)=C(C(N)=O)C(N)=O)C=C(c3ccc(Br)cc3)C2)c(OC)c1 (centres undefined): t
36. CN1C(=O)C(=O)N2c3ccc(Cl)cc3C3(c4ccccc4)N=CC12O3 (centres undefined): f
37. NC(=S)N/N=C\c1nccc2c(C(F)(F)F)cccc12: f
